All figures here come from patent US9988400B2.

- EXPERIMENTAL_SYSTEM: HEK cells stably transfected with tetracycline inducible hNR1 and hNR2A (Homo sapiens, UniProt Q05586+Q12879)
- Construct: expressed in transfected cells; host or cells: HEK cells, stably transfected, tetracycline/doxycycline inducible
- Sequence (Q12879 23-1464, other chains not shown): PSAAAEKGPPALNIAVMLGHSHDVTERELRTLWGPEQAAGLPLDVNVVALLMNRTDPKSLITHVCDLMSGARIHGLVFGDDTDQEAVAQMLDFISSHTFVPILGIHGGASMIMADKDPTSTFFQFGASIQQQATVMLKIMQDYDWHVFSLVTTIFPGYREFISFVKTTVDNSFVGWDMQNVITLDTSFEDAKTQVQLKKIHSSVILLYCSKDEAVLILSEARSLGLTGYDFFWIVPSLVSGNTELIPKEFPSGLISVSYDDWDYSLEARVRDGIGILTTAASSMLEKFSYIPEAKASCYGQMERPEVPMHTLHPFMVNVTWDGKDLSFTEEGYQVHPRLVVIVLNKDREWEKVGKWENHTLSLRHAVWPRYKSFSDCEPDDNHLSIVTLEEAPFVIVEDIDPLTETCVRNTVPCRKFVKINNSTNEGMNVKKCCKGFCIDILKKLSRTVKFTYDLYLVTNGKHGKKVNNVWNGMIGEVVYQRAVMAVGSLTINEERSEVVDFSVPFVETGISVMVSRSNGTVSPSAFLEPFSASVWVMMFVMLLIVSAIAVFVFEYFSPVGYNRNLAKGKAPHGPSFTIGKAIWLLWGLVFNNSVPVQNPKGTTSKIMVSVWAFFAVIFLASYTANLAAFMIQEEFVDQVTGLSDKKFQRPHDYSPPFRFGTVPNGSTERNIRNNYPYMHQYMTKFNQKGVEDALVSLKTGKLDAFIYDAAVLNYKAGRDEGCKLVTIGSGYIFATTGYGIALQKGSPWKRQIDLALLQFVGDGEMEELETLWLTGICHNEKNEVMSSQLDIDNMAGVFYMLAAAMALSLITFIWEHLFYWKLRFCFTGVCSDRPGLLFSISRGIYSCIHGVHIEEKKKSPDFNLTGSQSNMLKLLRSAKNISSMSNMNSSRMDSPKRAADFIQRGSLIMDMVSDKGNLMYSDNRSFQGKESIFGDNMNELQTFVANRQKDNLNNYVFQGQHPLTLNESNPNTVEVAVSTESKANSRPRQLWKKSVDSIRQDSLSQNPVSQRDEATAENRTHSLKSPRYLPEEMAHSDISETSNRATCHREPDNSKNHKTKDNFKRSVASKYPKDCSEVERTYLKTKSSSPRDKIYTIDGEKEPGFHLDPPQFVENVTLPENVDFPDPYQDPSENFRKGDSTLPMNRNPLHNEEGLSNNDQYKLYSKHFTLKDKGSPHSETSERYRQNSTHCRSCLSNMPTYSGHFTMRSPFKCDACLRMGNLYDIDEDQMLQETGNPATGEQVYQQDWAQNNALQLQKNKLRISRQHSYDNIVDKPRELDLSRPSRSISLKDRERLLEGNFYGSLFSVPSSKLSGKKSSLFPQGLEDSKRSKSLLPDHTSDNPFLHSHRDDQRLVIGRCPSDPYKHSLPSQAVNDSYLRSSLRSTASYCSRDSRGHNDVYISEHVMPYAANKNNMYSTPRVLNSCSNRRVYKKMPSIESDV
- MEASUREMENT_NOTES: Assay 1: Cell-Based Assay, cytosolic calcium response to positive allosteric modulators (with 30 μM glycine and 300 nM L-glutamate, EC30)
- MEASUREMENT_SETUP: Table 2; responses scaled relative to 100 μM L-glutamate maximal response (100%) and 0 μM L-glutamate (0%)
- Description: Assay 1: Cell-Based Assay HEK cells stably transfected with tetracycline inducible hNR1 and hNR2A were seeded into clear bottom 384 well poly-D-lysine coated plates (2.5×10^4 cells per well) in Minimum Essential Media (MEM; without L-) including 7.5 μg mL^−1 doxycycline and 500 μM (+)-ketamine. The cells were incubated at 37° C. in 5% CO2 for 24 h. […] Compounds were added after a 10 second baseline read and maximum level of relative fluorescence units (RFU) was measured over a 5 min period. […]
Simple rule here: Max % less than 80% is 1 (yes), otherwise 0 (no).

Is Max % of CCNC(=O)c1c(C(F)(F)F)sc2nc(COc3ccc(F)cc3)cc(=O)n12 strictly below 80%?
1 (yes)

Is Max % of CCN(Cc1cc(=O)n2c([C@@H]3C[C@H]3CO)c(C)sc2n1)c1ccccn1 (relative stereo) strictly below 80%?
0 (no)

Is Max % of Cc1sc2nc(Cn3nc(C#N)cc3C)cc(=O)n2c1[C@@H]1C[C@H]1CO (relative stereo) strictly below 80%?
0 (no)

Is Max % of CCNC(=O)c1c(C)sc2nc(Cc3cccc(F)c3)cc(=O)n12 strictly below 80%?
1 (yes)

Is Max % of CCNC(=O)c1c(C)sc2nc(C(C)c3cccc(C(F)(F)F)c3F)cc(=O)n12 (centres unmarked) strictly below 80%?
0 (no)

Is Max % of Cc1sc2nc(C(C)n3nc(C(F)(F)F)cc3C3CC3)cc(=O)n2c1[C@@H]1C[C@H]1CO (relative stereo) strictly below 80%?
0 (no)

Is Max % of CNC(=O)Cc1c(C)sc2nc(COc3ccc(F)cc3)cc(=O)n12 strictly below 80%?
1 (yes)

Is Max % of CCNC(=O)c1csc2nc(Cc3cccc(C#N)c3F)cc(=O)n12 strictly below 80%?
0 (no)

----------
- EXPERIMENTAL_SYSTEM: HEK cells stably transfected with tetracycline inducible hNR1 and hNR2A (Homo sapiens, UniProt Q05586+Q12879)
- Construct: expressed in transfected cells; host or cells: HEK cells, stably transfected, tetracycline/doxycycline inducible
- MEASUREMENT_NOTES: Assay 1: Cell-Based Assay, cytosolic calcium response to positive allosteric modulators (with 30 μM glycine and 300 nM L-glutamate, EC30)
- MEASUREMENT_SETUP: Table 2; cytosolic calcium response, with 30 μM glycine and 300 nM L-glutamate (EC30); — = no plateau was reached
Exercise: for every item that follows, state its recorded pEC50.
Here pEC50 is given on a logarithmic scale as minus log10 of the concentration in mol/L.

Supply measured pEC50 of CCN(Cc1cc(=O)n2c(C(C)(C)O)c(C)sc2n1)c1ccc(F)cc1 in your reply.
6.31

Supply measured pEC50 of CNC(=O)c1c(C)sc2nc(Cc3cccc(C(F)F)c3F)cc(=O)n12 in your reply.
5.19

Supply measured pEC50 of Cc1sc2nc(COc3ccc(F)cc3)cc(=O)n2c1-c1ncco1 in your reply.
5.32

Supply measured pEC50 of CC(=O)c1c(C)sc2nc(COc3ccc(F)cc3)cc(=O)n12 in your reply.
4.48

Supply measured pEC50 of CCN(Cc1cc(=O)n2c(COC)c(C)sc2n1)c1ccc(F)cc1 in your reply.
6.46

Supply measured pEC50 of CCN(Cc1cc(=O)n2c(CCCO)c(C)sc2n1)c1ccc(F)cc1 in your reply.
6.36

Supply measured pEC50 of CCN(Cc1cc(=O)n2c(-c3ccco3)c(C)sc2n1)c1ccc(F)cc1 in your reply.
6.67

Supply measured pEC50 of Cc1sc2nc(Cc3cccc(C#N)c3F)cc(=O)n2c1C(=O)NCC(F)(F)F in your reply.
4.73

Supply measured pEC50 of CCNC(=O)c1c(C)sc2nc(Cc3cc(F)ccc3CC)cc(=O)n12 in your reply.
4.47

----------
- EXPERIMENTAL_SYSTEM: HEK cells stably transfected with tetracycline inducible hNR1 and hNR2A (Homo sapiens, UniProt Q05586+Q12879)
- Construct: expressed in transfected cells; host or cells: HEK cells, stably transfected, tetracycline/doxycycline inducible
- MEASUREMENT_NOTES: Assay 1: Cell-Based Assay, cytosolic calcium response to positive allosteric modulators (with 30 μM glycine and 300 nM L-glutamate, EC30)
- MEASUREMENT_SETUP: Table 2; responses scaled relative to 100 μM L-glutamate maximal response (100%) and 0 μM L-glutamate (0%)
MEASURE_NAME: Max %
Respond with a number, then the unit of measure.

Supply measured Max % of CCN(Cc1cc(=O)n2c(-c3cncnc3)c(C)sc2n1)c1ccc(F)cc1 in your reply.
145.1%

Supply measured Max % of CNC(=O)c1c(C)sc2nc(Cc3ccc(C)c(F)c3)cc(=O)n12 in your reply.
46.1%

Supply measured Max % of CCNC(=O)c1c(C)sc2nc(Cc3cc(C#N)ccc3CC)cc(=O)n12 in your reply.
120%

Supply measured Max % of CCNC(=O)c1c(C)sc2nc(Cc3cc(F)ccc3C(F)(F)F)cc(=O)n12 in your reply.
79.9%

Supply measured Max % of CCN(Cc1cc(=O)n2c(-c3cncnc3)c(C)sc2n1)c1cccc(C#N)c1 in your reply.
133%

Supply measured Max % of Cc1sc2nc(COc3ccc(F)cc3)cc(=O)n2c1-c1nnc[nH]1 in your reply.
46.2%

Supply measured Max % of CNC(=S)c1c(C)sc2nc(COc3ccc(F)cc3)cc(=O)n12 in your reply.
68.6%

Supply measured Max % of CCN(Cc1cc(=O)n2c(C3CCC3)c(C)sc2n1)c1ccc(F)cc1 in your reply.
130%

Supply measured Max % of Cc1sc2nc(COc3ccc(F)cc3)cc(=O)n2c1C1CC1C#N (racemic) [Example 4.18] in your reply.
102%

Supply measured Max % of CCN(Cc1cc(=O)n2c3c(sc2n1)CCC3=O)c1ccc(F)cc1 in your reply.
81.4%

----------
Exercise: for every item that follows, state its recorded pEC50.
- EXPERIMENTAL_SYSTEM: HEK cells stably transfected with tetracycline inducible hNR1 and hNR2A (Homo sapiens, UniProt Q05586+Q12879)
- Construct: expressed in transfected cells; host or cells: HEK cells, stably transfected, tetracycline/doxycycline inducible
- MEASUREMENT_NOTES: Assay 1: Cell-Based Assay, cytosolic calcium response to positive allosteric modulators (with 30 μM glycine and 300 nM L-glutamate, EC30)
- MEASUREMENT_SETUP: Table 3; cytosolic calcium response, with 30 μM glycine and 300 nM L-glutamate (EC30); — = no plateau was reached
Here pEC50 is given on a logarithmic scale as minus log10 of the concentration in mol/L.

Supply measured pEC50 of CCNC(=O)c1c(C(F)(F)F)sc2nc(Cn3nc(C(F)(F)F)cc3Cl)cc(=O)n12 [compound 43] in your reply.
6.44

Supply measured pEC50 of N#Cc1cccc(Cc2cc(=O)n3c(C4CC4C(F)(F)F)c(C(F)(F)F)sc3n2)c1F (centres unmarked) [compound 146] in your reply.
6.81

Supply measured pEC50 of Cc1sc2nc(Cc3cccc(C(F)(F)F)c3F)cc(=O)n2c1C1CC1C#N (centres unmarked) [compound 131] in your reply.
6.17

Supply measured pEC50 of CNC(=O)c1c(C)sc2nc(Cc3cc(F)c(F)cc3OC)cc(=O)n12 [compound 9] in your reply.
5.09

Supply measured pEC50 of N#CC1CC1c1c(C(F)(F)F)sc2nc(Cn3nc(C(F)(F)F)cc3Cl)cc(=O)n12 (centres unmarked) [compound 144] in your reply.
7.39

Supply measured pEC50 of Cc1sc2nc(Cn3nc(C(F)(F)F)cc3Cl)cc(=O)n2c1/C=C/C(N)=O [compound 264] in your reply.
5.29

Supply measured pEC50 of O=c1cc(Cn2nc(C(F)(F)F)cc2Cl)nc2scc(C(F)(F)F)n12 [compound 239] in your reply.
4.85

Supply measured pEC50 of Cc1sc2nc(Cn3nc(C(F)(F)F)cc3Cl)cc(=O)n2c1CC1CC1 [compound 221] in your reply.
5.42

Supply measured pEC50 of CCN(Cc1cc(=O)n2c(C3CC3(C#N)CO)csc2n1)c1ccc(F)cc1 (centres unmarked) [compound 220] in your reply.
4.33

Supply measured pEC50 of COc1cc(C(F)(F)F)n(Cc2cc(=O)n3c(C4CC4C#N)c(C)sc3n2)n1 (centres unmarked) [compound 210] in your reply.
5.05

Supply measured pEC50 of N#CC1CC1c1c(Cl)sc2nc(Cn3nc(Cl)cc3C(F)(F)F)cc(=O)n12 (centres unmarked) [compound 268] in your reply.
6.74

Supply measured pEC50 of CNC(=O)Cc1c(C)sc2nc(Cc3cccc(C(F)(F)F)c3F)cc(=O)n12 [compound 19] in your reply.
5.26

Supply measured pEC50 of Cc1sc2nc(Cc3cccc(C(F)(F)F)c3F)cc(=O)n2c1-c1ncc[nH]1 [compound 47] in your reply.
5.29

Supply measured pEC50 of Cc1sc2nc(Cn3nc(C(F)(F)F)cc3Cl)cc(=O)n2c1-c1cscn1 [compound 151] in your reply.
6.27

Supply measured pEC50 of CCNC(=O)c1c(C)sc2nc(Cc3cc(F)c(F)cc3CCF)cc(=O)n12 [compound 17] in your reply.
5.15

Supply measured pEC50 of CCc1sc2nc(Cn3nc(C(F)(F)F)cc3Cl)cc(=O)n2c1-c1cccnc1 [compound 202] in your reply.
4.62

Supply measured pEC50 of CCNC(=O)c1c(C(F)(F)F)sc2nc(Cc3cccc(C(F)F)c3F)cc(=O)n12 [compound 42] in your reply.
5.80
